Can you tell me T cell response relative to baseline (None = 1.0), 5 μM HEL E^d, second value for the items I'm about to list?
Target: murine E^d MHC class II allele (Mus musculus, UniProt P01904+P01915)
Sequence (P01904 26-255): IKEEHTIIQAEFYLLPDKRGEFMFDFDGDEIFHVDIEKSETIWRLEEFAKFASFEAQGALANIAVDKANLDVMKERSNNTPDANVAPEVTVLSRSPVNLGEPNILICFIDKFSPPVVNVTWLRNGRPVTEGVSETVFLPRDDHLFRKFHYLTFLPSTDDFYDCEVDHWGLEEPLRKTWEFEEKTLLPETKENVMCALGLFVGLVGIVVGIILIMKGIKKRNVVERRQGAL
Sequence (P01915 27-264 limits assumed): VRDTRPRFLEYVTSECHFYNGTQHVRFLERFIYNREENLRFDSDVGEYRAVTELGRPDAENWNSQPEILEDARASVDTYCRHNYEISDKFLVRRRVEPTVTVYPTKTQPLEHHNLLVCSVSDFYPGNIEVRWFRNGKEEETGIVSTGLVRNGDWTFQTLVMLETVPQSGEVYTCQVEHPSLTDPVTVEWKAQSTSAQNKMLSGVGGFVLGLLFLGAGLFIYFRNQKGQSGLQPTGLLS
Assay: processed antigen assay, E^d allele (APC pulsed with native HEL)
Type: cell-based
Set-up: The A20 and CH27 B cell lymphoma lines express H-2^d and H-2^k alleles, respectively; endogenous in cells; host or cells: A20 B cell lymphoma (mitomycin C-treated or paraformaldehyde-fixed)
Settings: Table 29; native HEL prepulse 5 μM; AE peptide 64 μM; supernatant dilution 1:8 (second value)
Non-standard residues stand in square brackets, D forms with d. hArg = N=C(N)NCCCC[C@H](N)C(=O)O; Cit = NC(=O)NCCC[C@H](N)C(=O)O

Guide cases for T cell response relative to baseline (None = 1.0), 5 μM HEL E^d, second value, answers given:
{"substance": "Ac-LRMK HArg PK-NH2 (Ac-LRMK[hArg]PK-NH2; SMILES CSCC[C@H](NC(=O)[C@H](CCCNC(=N)N)NC(=O)[C@H](CC(C)C)NC(C)=O)C(=O)N[C@@H](CCCCN)C(=O)N[C@@H](CCCCNC(=N)N)C(=O)N1CCC[C@H]1C(=O)N[C@@H](CCCCN)C(N)=O) [AE227]", "result": 0.33}
{"substance": "Ac-LRMK D PK-NH2 (Ac-LRMKDPK-NH2) [AE230]", "result": 0.62}
{"substance": "Ac-LRMK E PK-NH2 (Ac-LRMKEPK-NH2) [AE231]", "result": 0.85}

Return reported T cell response relative to baseline (None = 1.0), 5 μM HEL E^d, second value values for all items listed beneath this line.
1. Ac-LRMK K PK-NH2 (Ac-LRMKKPK-NH2) [AE229]
2. Ac-LRMK N PK-NH2 (Ac-LRMKNPK-NH2) [AE232]
3. Ac-LRMKLPK-NH2 [AE114]
4. Ac-LRMK M PK-NH2 (Ac-LRMKMPK-NH2) [AE236]
5. Ac-LRMK H PK-NH2 (Ac-LRMKHPK-NH2) [AE228]
6. Ac-LRMK Cit PK-NH2 (Ac-LRMK[Cit]PK-NH2; SMILES CSCC[C@H](NC(=O)[C@H](CCCNC(=N)N)NC(=O)[C@H](CC(C)C)NC(C)=O)C(=O)N[C@@H](CCCCN)C(=O)N[C@@H](CCCNC(N)=O)C(=O)N1CCC[C@H]1C(=O)N[C@@H](CCCCN)C(N)=O) [AE226]

[0.58, 0.50, 0.37, 0.58, 0.45, 0.34]
